meta.source: paper PMC10064822

TARGET_SYSTEM: hPTP1B1-400 (Homo sapiens, UniProt P18031)
ASSAY_OVERVIEW: Enzyme kinetics of hPTP1B1-400 inhibition
Format: biochemical
Design: the three purified hPTP1B constructs (hPTP1B1-285, hPTP1B1-321, and hPTP1B1-400); His-tag (N); made in house; host or cells: E. coli BL21 (DE3)
CONDITION_PARAMETERS: hPTP1B1-400, pNPP 0.1-0.5 mM, best fit by R^2

[
  {
    "COMPOUND": "[Na+].[Na+].[Na+].[O]=[V]([O-])([O-])[O-] [SO, sodium orthovanadate]",
    "Type of inhibition": "Uncompetitive"
  },
  {
    "COMPOUND": "C[C@H]1[C@H](C)CC[C@]2(C(=O)O)CC[C@]3(C)C(=CC[C@@H]4[C@@]5(C)CC[C@H](O)C(C)(C)[C@@H]5CC[C@]43C)[C@H]12",
    "Type of inhibition": "Mixed"
  },
  {
    "COMPOUND": "COc1ccc(-n2ncc3c2C(C)(C)[C@@H]2CC[C@]4(C)[C@H](C(=O)C=C5[C@@H]6C[C@@](C)(C(=O)O)CC[C@]6(C)CC[C@]54C)[C@@]2(C)C3)cc1",
    "Type of inhibition": "Uncompetitive"
  }
]

----------
TARGET_SYSTEM: hPTP1B1-400 (Homo sapiens)
Sequence (P18031 1-400): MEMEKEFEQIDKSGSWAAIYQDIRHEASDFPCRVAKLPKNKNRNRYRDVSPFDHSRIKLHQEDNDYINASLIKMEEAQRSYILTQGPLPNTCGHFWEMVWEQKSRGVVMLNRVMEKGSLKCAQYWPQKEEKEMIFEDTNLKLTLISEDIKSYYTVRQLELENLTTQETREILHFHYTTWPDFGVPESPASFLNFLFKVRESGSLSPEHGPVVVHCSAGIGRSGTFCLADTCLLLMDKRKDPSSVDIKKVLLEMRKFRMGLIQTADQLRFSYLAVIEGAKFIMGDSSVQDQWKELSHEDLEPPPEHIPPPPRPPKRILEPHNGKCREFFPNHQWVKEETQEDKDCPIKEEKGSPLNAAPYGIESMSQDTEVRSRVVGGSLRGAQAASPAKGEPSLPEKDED
ASSAY_OVERVIEW: Enzyme kinetics of hPTP1B1-400 inhibition
Type: biochemical
Parameters: the three purified hPTP1B constructs (hPTP1B1-285, hPTP1B1-321, and hPTP1B1-400); His-tag (N); made in house; host or cells: E. coli BL21 (DE3)
CONDITION_PARAMETERS: hPTP1B1-400, pNPP substrate, fit of inhibition model
Description: The negative control was prepared with the enzyme and substrate in the absence of an inhibitor. The experiments were performed in triplicate. […] (2) y= Vmax x/Km + x, Vmax is the maximum velocity, x is the […] concentration, and Km is the Michaelis constant. (3) y= Vmax (x)/Km (1+(I/Ki))+x (4) y= Vmax (x)/((1+I)/(α Ki)) /x+Km ((1+I)/ Ki)/(1+I)/(α Ki)), (5) y= Vmax (x)/ x+(Km/(1+I)/Ki) […]
The entries below come with measured Vmax values attached.

[
  {
    "MOLECULE": "Cc1ccc(C(=O)Nc2ccc(S(=O)(=O)O)c3cc(S(=O)(=O)O)cc(S(=O)(=O)O)c23)cc1NC(=O)c1cccc(NC(=O)Nc2cccc(C(=O)Nc3cc(C(=O)Nc4ccc(S(=O)(=O)O)c5cc(S(=O)(=O)O)cc(S(=O)(=O)O)c45)ccc3C)c2)c1",
    "TARGET_SYSTEM": "hPTP1B1-400 (Homo sapiens)",
    "Vmax": 0.64
  },
  {
    "MOLECULE": "COc1ccc(-n2ncc3c2C(C)(C)[C@@H]2CC[C@]4(C)[C@H](C(=O)C=C5[C@@H]6C[C@@](C)(C(=O)O)CC[C@]6(C)CC[C@]54C)[C@@]2(C)C3)cc1",
    "TARGET_SYSTEM": "hPTP1B1-400 (Homo sapiens)",
    "Vmax": 0.87
  },
  {
    "MOLECULE": "[Na+].[Na+].[Na+].[O]=[V]([O-])([O-])[O-] [SO, sodium orthovanadate]",
    "TARGET_SYSTEM": "hPTP1B1-400 (Homo sapiens)",
    "Vmax": 3.20
  },
  {
    "MOLECULE": "C[C@H]1[C@H](C)CC[C@]2(C(=O)O)CC[C@]3(C)C(=CC[C@@H]4[C@@]5(C)CC[C@H](O)C(C)(C)[C@@H]5CC[C@]43C)[C@H]12",
    "TARGET_SYSTEM": "hPTP1B1-400 (Homo sapiens)",
    "Vmax": 0.63
  }
]
